- target: Bem1-1, P29366
- Sequence (P29366 55-141): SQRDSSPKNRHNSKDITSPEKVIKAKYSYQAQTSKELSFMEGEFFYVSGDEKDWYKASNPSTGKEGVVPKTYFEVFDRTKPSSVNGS
- assay.protocol: SPOT array
- run.conditions: median of control spots 4282
measured.parameter: SPOT intensity

>>> result("DDEDVPPQLPTRTKS")
0
>>> result("IHTRRPSSTSQYLIR")
9
>>> result("ANNQGPPNLPARDKS")
0
>>> result("DAPASKPSVPPRNYF")
0
>>> result("NNQRRKPLLLNIGDH")
0
